Reference for the values: patent US20140249139A1

target: PI3K alpha (Homo sapiens, UniProt P42336); construct: for the p110-a subunit (with a deletion of the first 20 amino acids) are generated; His tag (C); Tn5 (Trichoplusia ni) or TiniPro insect cells; test: Enzymatic PI3K alpha isoform inhibition (lipid kinase activity, Kinase-Glo); conditions: enzymatic assay
Sequence (P42336 with tags, fused parts or gaps limits assumed, species assumed): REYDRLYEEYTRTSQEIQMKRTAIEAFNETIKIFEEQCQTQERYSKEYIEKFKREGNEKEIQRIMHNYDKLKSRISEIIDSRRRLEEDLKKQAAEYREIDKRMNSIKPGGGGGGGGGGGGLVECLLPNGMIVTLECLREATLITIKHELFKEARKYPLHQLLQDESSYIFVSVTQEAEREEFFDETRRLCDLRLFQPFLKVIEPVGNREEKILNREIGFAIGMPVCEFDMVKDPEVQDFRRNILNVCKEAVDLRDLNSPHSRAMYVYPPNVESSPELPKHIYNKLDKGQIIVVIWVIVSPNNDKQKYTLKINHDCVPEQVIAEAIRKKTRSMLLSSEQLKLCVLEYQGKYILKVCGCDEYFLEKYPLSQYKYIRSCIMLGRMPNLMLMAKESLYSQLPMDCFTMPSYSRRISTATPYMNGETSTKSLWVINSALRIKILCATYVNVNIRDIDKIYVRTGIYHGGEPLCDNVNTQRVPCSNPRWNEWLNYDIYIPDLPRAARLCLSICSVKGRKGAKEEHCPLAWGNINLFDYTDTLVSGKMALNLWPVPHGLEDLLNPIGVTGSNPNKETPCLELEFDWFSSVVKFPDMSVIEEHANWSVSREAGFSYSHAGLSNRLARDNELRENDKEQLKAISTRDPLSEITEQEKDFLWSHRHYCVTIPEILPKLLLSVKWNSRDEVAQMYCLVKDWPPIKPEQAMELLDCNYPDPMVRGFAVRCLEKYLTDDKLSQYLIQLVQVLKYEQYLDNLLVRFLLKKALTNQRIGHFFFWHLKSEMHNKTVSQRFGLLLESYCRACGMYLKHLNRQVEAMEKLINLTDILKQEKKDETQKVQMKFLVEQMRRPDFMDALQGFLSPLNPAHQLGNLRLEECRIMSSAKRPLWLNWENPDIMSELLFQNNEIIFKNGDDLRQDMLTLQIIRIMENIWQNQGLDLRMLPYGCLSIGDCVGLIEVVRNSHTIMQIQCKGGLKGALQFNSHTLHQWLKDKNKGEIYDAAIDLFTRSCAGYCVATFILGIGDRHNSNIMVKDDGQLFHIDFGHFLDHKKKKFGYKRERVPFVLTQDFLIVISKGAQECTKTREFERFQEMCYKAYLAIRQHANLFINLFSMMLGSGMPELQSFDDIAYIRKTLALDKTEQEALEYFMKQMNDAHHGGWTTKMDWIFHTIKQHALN
pIC50: −log10 of the molar value.
recorded.endpoint: pIC50

A = CN1CCN(C(=O)c2cccc(-c3ncnc4ccc(-c5ccc(NS(C)(=O)=O)c(C(F)(F)F)c5)cc34)c2)CC1
B = COc1ncc(-c2ccc3ncnc(-c4cccc(C(=O)N5CCN(C(C)=O)CC5)c4)c3c2)cn1
C = COc1ncc(-c2ccc3ncnc(-c4cncc(C(=O)N5CCOC(C)(C)C5)c4)c3c2)cc1C(F)(F)F
D = COc1ccc(-c2ccc3ncnc(-c4cccc(C(=O)N5CCN(C)CC5)c4)c3c2)cc1C(=O)N(C)C
Order the records so the highest pIC50 appears first and the lowest last. Answer with the labels in sequence, matching the requested order.
C, B, A, D

* * *

target: PI3K delta (Homo sapiens, UniProt O00329); construct: for the full-length p110-d subunit are generated and fused by overlapping PCR; His tag (C); made in house; host or cells: baculovirus BV1060; Tn5 (Trichoplusia ni) or TiniPro insect cells; test: Enzymatic PI3K delta isoform inhibition (lipid kinase activity, Kinase-Glo); format: biochemical; conditions: enzymatic assay
Sequence (O00329 with tags, fused parts or gaps limits assumed, species assumed): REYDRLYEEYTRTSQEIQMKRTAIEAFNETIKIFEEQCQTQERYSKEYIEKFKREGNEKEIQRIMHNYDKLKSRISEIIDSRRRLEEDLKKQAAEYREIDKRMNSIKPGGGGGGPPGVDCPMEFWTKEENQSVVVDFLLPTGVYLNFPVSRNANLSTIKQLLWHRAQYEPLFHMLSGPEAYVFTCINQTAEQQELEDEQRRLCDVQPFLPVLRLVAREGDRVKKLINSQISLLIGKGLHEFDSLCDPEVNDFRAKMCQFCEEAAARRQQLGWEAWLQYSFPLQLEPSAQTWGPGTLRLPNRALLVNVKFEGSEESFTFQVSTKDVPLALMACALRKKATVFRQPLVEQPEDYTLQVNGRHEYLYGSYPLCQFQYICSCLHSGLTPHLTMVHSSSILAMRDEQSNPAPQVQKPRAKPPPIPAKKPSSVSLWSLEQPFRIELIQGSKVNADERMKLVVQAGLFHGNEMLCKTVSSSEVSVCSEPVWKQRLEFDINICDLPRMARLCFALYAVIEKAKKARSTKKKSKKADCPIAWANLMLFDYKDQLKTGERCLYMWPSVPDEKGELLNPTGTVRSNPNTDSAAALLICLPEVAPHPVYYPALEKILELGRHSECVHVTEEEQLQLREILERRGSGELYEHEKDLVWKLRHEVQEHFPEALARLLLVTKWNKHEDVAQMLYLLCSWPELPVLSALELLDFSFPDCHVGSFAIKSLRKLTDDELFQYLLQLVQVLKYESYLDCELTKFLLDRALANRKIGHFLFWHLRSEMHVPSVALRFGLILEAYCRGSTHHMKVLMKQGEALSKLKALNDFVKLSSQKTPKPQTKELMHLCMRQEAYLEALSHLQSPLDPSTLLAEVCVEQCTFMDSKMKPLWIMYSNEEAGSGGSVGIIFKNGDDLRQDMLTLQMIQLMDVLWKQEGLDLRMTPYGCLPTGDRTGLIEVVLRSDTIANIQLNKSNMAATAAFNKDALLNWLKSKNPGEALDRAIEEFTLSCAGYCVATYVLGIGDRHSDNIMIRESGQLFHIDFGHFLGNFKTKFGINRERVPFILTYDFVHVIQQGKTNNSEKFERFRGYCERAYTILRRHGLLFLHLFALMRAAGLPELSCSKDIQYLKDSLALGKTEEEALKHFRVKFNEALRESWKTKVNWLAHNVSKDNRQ
pIC50: −log10 of the molar value.
recorded.endpoint: pIC50

CC(=O)N1CCN(C(=O)c2cncc(-c3ncnc4ccc(-c5cncc(C(F)(F)F)c5)cc34)c2)CC1 : 7.98
COc1ccc(-c2ccc3ncnc(-c4cncc(C(=O)N5CCNC(C)(C)C5)c4)c3c2)cn1 : 8.00
CN1CCN(C(=O)c2cccc(-c3ncnc4ccc(-c5ccc(S(N)(=O)=O)c(C(F)(F)F)c5)cc34)c2)CC1 : 7.63
COc1ccc(-c2ccc3ncnc(-c4cncc(C(=O)N5CC(C)NC(C)C5)c4)c3c2)cc1C(F)(F)F (stereo not drawn) : 7.98
CN1CCN(C(=O)c2cccc(-c3ncnc4ccc(-c5ccc(N(C)C)nc5)cc34)c2)CC1 : 8.20
COc1ncc(-c2ccc3ncnc(-c4cncc(C(=O)N5CCN(C)C(C)(C)C5)c4)c3c2)cc1C(F)(F)F : 8.30

a = CC(=O)N1CCN(C(=O)c2cccc(-c3ncnc4ccc(-c5cnc(N)nc5)cc34)c2)CC1
b = COc1ncc(-c2ccc3ncnc(-c4cncc(C(=O)N5CCN(C)C(C)(C)C5)c4)c3c2)cc1C
c = COc1ccc(-c2ccc3ncnc(-c4cccc(C(=O)N5CCN(C(C)=O)CC5)c4)c3c2)cc1S(=O)(=O)N1CCCC1
d = CN1CCN(C(=O)c2cccc(-c3ncnc4ccc(-c5ccc(N6CCNCC6)nc5)cc34)c2)CC1
Sort entries by pIC50 from minimum to maximum value. Give the labels in the order specified.
d, a, c, b

* * *

target: PI3K alpha (Homo sapiens); construct: for the p110-a subunit (with a deletion of the first 20 amino acids) are generated; His tag (C); Tn5 (Trichoplusia ni) or TiniPro insect cells; experiment: Enzymatic PI3K alpha isoform inhibition (lipid kinase activity, Kinase-Glo); conditions: enzymatic assay
recorded.endpoint: IC50 (nM)

Worked cases, answers included:
COc1ccc(-c2ccc3ncnc(-c4cncc(C(=O)N5CCOC(C)(C)C5)c4)c3c2)cc1C(F)(F)F : 763
COc1ncc(-c2ccc3ncnc(-c4cccc(C(=O)N5CCN(C)C(C)(C)C5)c4)c3c2)cn1 : 614
COc1ncc(-c2ccc3ncnc(-c4cccc(C(=O)N5CCN[C@H](C)C5)c4)c3c2)cc1C#N : 488
COc1ccc(-c2ccc3ncnc(-c4cncc(C(=O)N5CCNC(C)(C)C5)c4)c3c2)cn1 : 360

P = Cc1ccc(-c2ccc3ncnc(-c4cccc(C(=O)N5CCN(C)CC5)c4)c3c2)cc1S(C)(=O)=O
Q = COc1ncc(-c2ccc3ncnc(-c4ccnc(C(=O)N5CCN(C(C)=O)CC5)c4)c3c2)cc1C(F)(F)F
R = COc1ccc(-c2ccc3ncnc(-c4cncc(C(=O)N5CC(C)NC(C)C5)c4)c3c2)cc1C(F)(F)F (stereo not shown)
Parameters: sort_field (IC50), sort_dir (desc). List each label, following the requested order.
R, P, Q

* * *

target: PI3K alpha (Homo sapiens); construct: for the p110-a subunit (with a deletion of the first 20 amino acids) are generated; His tag (C); Tn5 (Trichoplusia ni) or TiniPro insect cells; experiment: Enzymatic PI3K alpha isoform inhibition (lipid kinase activity, Kinase-Glo); conditions: enzymatic assay
recorded.endpoint: IC50 (nM)

The following compounds have reported results that may help.
COc1ncc(-c2ccc3ncnc(-c4cncc(C(=O)N5CCN(C)CC5)c4)c3c2)cc1C#N : 542
COc1ncc(-c2ccc3ncnc(-c4cncc(C(=O)N5CCN(C)C(C)(C)C5)c4)c3c2)cc1C : 69.5
COc1ccc(-c2ccc3ncnc(-c4cncc(C(=O)N5CCCN(C)CC5)c4)c3c2)cn1 : 578

P = COc1ccc(-c2ccc3ncnc(-c4cncc(C(=O)N5CCOCC5)c4)c3c2)cc1C(F)(F)F
Q = COc1ccc(-c2ccc3ncnc(-c4cncc(C(=O)N5C[C@@H]6C[C@H]5CN6)c4)c3c2)cc1C(F)(F)F
R = COc1ccc(-c2ccc3ncnc(-c4cccc(C(=O)N5CC(C)NC(C)C5)c4)c3c2)cn1 (stereo not shown)
S = CN1CCN(C(=O)c2cccc(-c3ncnc4ccc(-c5ccc(S(N)(=O)=O)c(C(F)(F)F)c5)cc34)c2)CC1
Hi! Can you put these in order of IC50, lowest number first? Give the labels in the order requested.
R, Q, P, S

* * *

target: PI3K delta (Homo sapiens, UniProt O00329); construct: for the full-length p110-d subunit are generated and fused by overlapping PCR; His tag (C); made in house; host or cells: baculovirus BV1060; Tn5 (Trichoplusia ni) or TiniPro insect cells; assay: Enzymatic PI3K delta isoform inhibition (lipid kinase activity, Kinase-Glo); assay type: biochemical; conditions: enzymatic assay
recorded.endpoint: IC50 (nM)

I = COc1ccc(-c2ccc3ncnc(-c4cccc(C(=O)N5CCN(C(C)=O)C(C)(C)C5)c4)c3c2)cn1 [Example 36]
II = CNc1ncc(-c2ccc3ncnc(-c4cncc(C(=O)N5CCN(C)CC5)c4)c3c2)cc1C [Example 75]
III = COc1ccc(-c2ccc3ncnc(-c4cncc(C(=O)N5CCNCC(F)(F)C5)c4)c3c2)cc1C(F)(F)F [Example 83]
IV = COc1ncc(-c2ccc3ncnc(-c4cc(C(=O)N5CCN(C(C)=O)CC5)cc(C(F)(F)F)c4)c3c2)cn1 [Example 104]
Rank descending by IC50: all 4 compounds from above. Returns: the labels arranged in the requested order.
IV, III, II, I
(IV: 38 nM, III: 21 nM, II: 12 nM, I: 4.5 nM)

1 = COc1ccc(-c2ccc3ncnc(-c4cccc(C(=O)N5CCCN(C)CC5)c4)c3c2)cn1 [Example 92]
2 = COc1ncc(-c2ccc3ncnc(-c4cccc(C(=O)N5CCOC(C)(C)C5)c4)c3c2)cn1 [Example 33]
// compare measured IC50, left 1 , right 2 , return larger Give the label under which the chosen entry appears.
2

A = COc1ccc(-c2ccc3ncnc(-c4cncc(C(=O)N5CCOCC5)c4)c3c2)cc1C(F)(F)F [Example 82]
B = COc1ncc(-c2ccc3ncnc(-c4cccc(C(=O)N5CCN(C(C)=O)C(C)(C)C5)c4)c3c2)cc1C#N [Example 37]
C = COc1ncc(-c2ccc3ncnc(-c4ccc(C)c(C(=O)N5CCN(C(C)=O)CC5)c4)c3c2)cn1 [Example 102]
D = CN1CCN(C(=O)c2cccc(-c3ncnc4ccc(-c5ccc(N)nc5)cc34)c2)CC1 [Example 25]
E = CN1CCN(C(=O)c2cccc(-c3ncnc4ccc(-c5ccc(NS(C)(=O)=O)c(C(F)(F)F)c5)cc34)c2)CC1 [Example 48]
// ascending sort on recorded IC50 Your task in answering is to list the labels in the requested order.
B, D, C, A, E
(B: 4 nM, D: 7 nM, C: 11 nM, A: 21.5 nM, E: 47.5 nM)

a = CN1CCN(C(=O)c2cncc(-c3ncnc4ccc(-c5cnc(N)nc5)cc34)c2)CC1 [Example 60]
b = COc1ccc(-c2ccc3ncnc(-c4cncc(C(=O)N5CCOC(C)(C)C5)c4)c3c2)cc1C(F)(F)F [Example 66]
Quick one: lower IC50, a or b ? Write down the label of the entry you select.
b

* * *

target: PI3K delta (Homo sapiens, UniProt O00329); construct: myristylation signal (myr) (N); HA tag (N); expressed in transfected cells; host or cells: Rat1 cells, stably transfected; assay: Cellular PI3K delta inhibition: PKB Ser473 phosphorylation in Rat1 cells expressing myr-HA-p110 delta; type: cell-based, rat; conditions: 1 h incubation, read-out: Cell PI3Kd/ IC50
Sequence (O00329 whole entry, species assumed, the tested form may be a part, canonical isoform): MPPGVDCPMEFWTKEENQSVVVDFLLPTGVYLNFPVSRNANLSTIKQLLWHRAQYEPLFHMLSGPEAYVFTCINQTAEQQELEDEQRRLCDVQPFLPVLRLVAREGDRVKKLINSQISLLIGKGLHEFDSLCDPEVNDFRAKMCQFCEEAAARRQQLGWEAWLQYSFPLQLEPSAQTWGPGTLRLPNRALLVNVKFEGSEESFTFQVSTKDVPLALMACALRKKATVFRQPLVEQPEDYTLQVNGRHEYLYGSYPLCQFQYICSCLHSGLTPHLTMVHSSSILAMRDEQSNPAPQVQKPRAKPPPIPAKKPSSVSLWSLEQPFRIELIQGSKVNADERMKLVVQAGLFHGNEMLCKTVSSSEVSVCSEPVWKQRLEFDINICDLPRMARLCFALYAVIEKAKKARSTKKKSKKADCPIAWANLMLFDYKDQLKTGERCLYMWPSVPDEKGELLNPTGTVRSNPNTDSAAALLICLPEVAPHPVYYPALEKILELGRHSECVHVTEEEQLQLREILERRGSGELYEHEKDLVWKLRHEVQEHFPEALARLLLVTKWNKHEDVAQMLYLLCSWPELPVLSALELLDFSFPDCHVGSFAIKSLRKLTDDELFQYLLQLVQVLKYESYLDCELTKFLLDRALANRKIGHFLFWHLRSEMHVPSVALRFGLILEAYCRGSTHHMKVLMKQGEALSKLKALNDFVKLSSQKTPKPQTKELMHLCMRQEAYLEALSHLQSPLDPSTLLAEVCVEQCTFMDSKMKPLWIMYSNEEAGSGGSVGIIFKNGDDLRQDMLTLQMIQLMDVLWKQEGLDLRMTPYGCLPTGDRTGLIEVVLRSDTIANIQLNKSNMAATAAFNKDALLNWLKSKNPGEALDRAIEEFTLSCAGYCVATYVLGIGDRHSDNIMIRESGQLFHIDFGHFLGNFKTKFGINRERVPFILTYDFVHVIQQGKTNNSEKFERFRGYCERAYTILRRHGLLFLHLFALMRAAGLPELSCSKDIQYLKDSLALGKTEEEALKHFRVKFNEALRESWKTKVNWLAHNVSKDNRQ
recorded.endpoint: IC50 (µM)

// below: answered compounds
COc1ccc(-c2ccc3ncnc(-c4cccc(C(=O)N5C[C@@H]6C[C@H]5CN6C)c4)c3c2)cn1 [Example 91] : 0.0323
COc1ccc(-c2ccc3ncnc(-c4cccc(C(=O)N5CCN(C(C)=O)CC5)c4)c3c2)cc1S(=O)(=O)N1CCCC1 [Example 7] : 0.083
CNc1ncc(-c2ccc3ncnc(-c4cncc(C(=O)N5CCN(C)CC5)c4)c3c2)cc1C [Example 75] : 0.014

A = COc1ncc(-c2ccc3ncnc(-c4cccc(C(=O)N5CCN(C)CC5)c4)c3c2)cn1 [Example 2]
B = COc1ccc(-c2ccc3ncnc(-c4ccc(C)c(C(=O)N5CC6CC5CN6C)c4)c3c2)cn1 (stereo not shown) [Example 117]
// compare: A vs B , metric IC50, want the smaller Mark your selection by writing its label.
A

I = COc1ccc(-c2ccc3ncnc(-c4cc(F)cc(C(=O)N5CCN(C(C)=O)CC5)c4)c3c2)cn1 [Example 110]
II = COc1ccc(-c2ccc3ncnc(-c4cncc(C(=O)N5CCNC(C)(C)C5)c4)c3c2)cc1C(F)(F)F [Example 81]
API: POST /compare with I and II ; response names the item with higher IC50. Select an item and report its label.
I
(I: 0.103 µM, II: 0.0195 µM)
